# tgt: HIPK2 (human)
# protocolSummary: radiometric filter-binding kinase assay
# conditionNotes: compound 0.1 µM
readoutName: residual activity (%)

1. NC(=O)c1cc(-c2ccnc(NC3CCCCC3)c2)nc(N2CCNCC2)c1 = 89
2. COc1cc(O)c2c(c1)[C@H]1OC1C[C@H](O)[C@H](O)C(=O)/C=C\C[C@H](C)OC2=O (stereo partly specified) = 86
3. CCn1c(-c2nonc2N)nc2cncc(CNC3CCNCC3)c21 = 112
4. Cc1cccc(-c2nn(C(=S)Nc3ccccc3)cc2-c2ccnc3ccccc23)n1 = 104
5. COc1cc(O)c2c(c1)/C=C/C[C@H](O)[C@H](O)C(=O)/C=C\C[C@H](C)OC2=O = 98
6. O=C(Nc1nc2cc(C(F)(F)F)cc(NC3CC3)n2n1)c1cccnc1 = 116

I: c1ccc2c(-c3cnn4cc(-c5ccc(N6CCNCC6)cc5)cnc34)ccnc2c1
II: NC(=O)c1cc2c(-c3cccc(-c4ccccc4)c3)cnc(N)c2s1
QUERY: Which record would sort first by descending residual activity, I or II ? Kindly give the label for the entry you pick.
RESULT: I
(I: 93%, II: 64%)

P: CC1=C(CO)C(=O)O[C@@H]([C@@H](C)[C@H]2CC[C@H]3[C@@H]4C[C@H]5O[C@]56[C@@H](O)C=CC(=O)[C@]6(C)C4CC[C@]23C)C1 (stereo partly specified)
Q: CNC(=O)C1[C@H]2O[C@@](C)([C@@H]1N)n1c3ccccc3c3c4c(c5c6ccccc6n2c5c31)C(=O)NC4 (stereo partly specified)
R: O=C(O)c1ccc(-c2c[nH]c3ncc(-c4ccccc4)cc23)cc1C1CCCC1
S: Cc1ccc(Sc2cnc(Nc3cccc(Br)n3)s2)cc1C(=O)N1CCN(C(=O)CN)CC1
QUERY: rank_up(items): orders items by reported residual activity in ascending numerical order. Please reply with the labels ordered as requested. Many thanks.
RESULT: S, Q, R, P

###

# tgt: JAK2 JH1 JH2 (human) (UniProt O60674)
# Sequence (O60674 whole entry, looked up): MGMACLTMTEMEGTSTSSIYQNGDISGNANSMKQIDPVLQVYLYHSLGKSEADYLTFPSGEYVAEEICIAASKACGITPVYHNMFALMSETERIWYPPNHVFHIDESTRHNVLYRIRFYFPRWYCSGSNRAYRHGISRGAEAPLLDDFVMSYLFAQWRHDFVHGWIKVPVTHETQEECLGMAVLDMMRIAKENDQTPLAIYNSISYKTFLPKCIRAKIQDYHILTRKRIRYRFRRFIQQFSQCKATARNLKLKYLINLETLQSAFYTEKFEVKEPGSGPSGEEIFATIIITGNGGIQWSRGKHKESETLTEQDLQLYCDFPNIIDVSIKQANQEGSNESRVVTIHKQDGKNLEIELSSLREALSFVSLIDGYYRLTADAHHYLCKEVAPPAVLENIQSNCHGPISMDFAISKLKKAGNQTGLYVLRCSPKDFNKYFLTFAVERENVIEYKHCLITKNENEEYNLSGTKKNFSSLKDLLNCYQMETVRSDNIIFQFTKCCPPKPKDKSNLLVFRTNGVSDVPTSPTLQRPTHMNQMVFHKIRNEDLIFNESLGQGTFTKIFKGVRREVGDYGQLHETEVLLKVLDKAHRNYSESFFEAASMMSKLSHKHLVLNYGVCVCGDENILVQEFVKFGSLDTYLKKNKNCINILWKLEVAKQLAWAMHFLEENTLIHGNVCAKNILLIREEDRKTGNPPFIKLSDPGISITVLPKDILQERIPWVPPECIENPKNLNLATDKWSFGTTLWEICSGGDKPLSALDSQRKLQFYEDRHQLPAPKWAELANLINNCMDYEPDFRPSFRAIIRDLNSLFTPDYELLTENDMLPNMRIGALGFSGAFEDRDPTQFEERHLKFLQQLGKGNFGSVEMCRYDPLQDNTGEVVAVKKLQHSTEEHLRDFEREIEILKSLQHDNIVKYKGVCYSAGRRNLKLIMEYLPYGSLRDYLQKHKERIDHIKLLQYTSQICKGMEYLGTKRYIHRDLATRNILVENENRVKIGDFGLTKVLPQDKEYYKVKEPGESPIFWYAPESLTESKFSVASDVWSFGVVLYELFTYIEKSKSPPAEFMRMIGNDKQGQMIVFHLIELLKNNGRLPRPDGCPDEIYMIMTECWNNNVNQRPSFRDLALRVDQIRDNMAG
# protocolSummary: radiometric filter-binding kinase assay
# conditionNotes: compound 0.1 µM
readoutName: residual activity (%)

Consider the following illustrative entries.
1) COc1ccc(-n2ncc3cnc(Nc4cc(OC)c(OC)c(OCCCN5CCN(C)CC5)c4)nc32)cc1 = 4
2) CN(C)C/C=C/C(=O)Nc1cccc(C(=O)Nc2ccc(Nc3nccc(-c4cccnc4)n3)cc2)c1 = 85
3) CC1=C(CO)C(=O)O[C@@H]([C@@H](C)[C@H]2CC[C@H]3[C@@H]4C[C@H]5O[C@]56[C@@H](O)C=CC(=O)[C@]6(C)C4CC[C@]23C)C1 (stereo partly drawn) = 98
4) CN1CCN(CCOc2cc(OC3CCOCC3)c3c(Nc4c(Cl)ccc5c4OCO5)ncnc3c2)CC1 = 102
5) c1ccc2c(-c3cnn4cc(-c5ccc(N6CCNCC6)cc5)cnc34)ccnc2c1 = 100
6) CNC(=O)C1[C@H]2O[C@@](C)([C@@H]1N)n1c3ccccc3c3c4c(c5c6ccccc6n2c5c31)C(=O)NC4 (stereo partly drawn) = 12

A: Cc1ccc(-c2ccc3c(ccc4sc5c(c43)NC[C@@H](C)NC5=O)n2)cn1
B: O=C(NCCCNc1nc(Nc2cccc(CN3CCOCC3)c2)ncc1C1CC1)C1CCC1
QUERY: Select one: A or B . Criterion: greater recorded residual activity. // return label of chosen record
RESULT: A

###

# tgt: IKBKB (human) (UniProt O14920)
# Sequence (O14920 whole entry, looked up): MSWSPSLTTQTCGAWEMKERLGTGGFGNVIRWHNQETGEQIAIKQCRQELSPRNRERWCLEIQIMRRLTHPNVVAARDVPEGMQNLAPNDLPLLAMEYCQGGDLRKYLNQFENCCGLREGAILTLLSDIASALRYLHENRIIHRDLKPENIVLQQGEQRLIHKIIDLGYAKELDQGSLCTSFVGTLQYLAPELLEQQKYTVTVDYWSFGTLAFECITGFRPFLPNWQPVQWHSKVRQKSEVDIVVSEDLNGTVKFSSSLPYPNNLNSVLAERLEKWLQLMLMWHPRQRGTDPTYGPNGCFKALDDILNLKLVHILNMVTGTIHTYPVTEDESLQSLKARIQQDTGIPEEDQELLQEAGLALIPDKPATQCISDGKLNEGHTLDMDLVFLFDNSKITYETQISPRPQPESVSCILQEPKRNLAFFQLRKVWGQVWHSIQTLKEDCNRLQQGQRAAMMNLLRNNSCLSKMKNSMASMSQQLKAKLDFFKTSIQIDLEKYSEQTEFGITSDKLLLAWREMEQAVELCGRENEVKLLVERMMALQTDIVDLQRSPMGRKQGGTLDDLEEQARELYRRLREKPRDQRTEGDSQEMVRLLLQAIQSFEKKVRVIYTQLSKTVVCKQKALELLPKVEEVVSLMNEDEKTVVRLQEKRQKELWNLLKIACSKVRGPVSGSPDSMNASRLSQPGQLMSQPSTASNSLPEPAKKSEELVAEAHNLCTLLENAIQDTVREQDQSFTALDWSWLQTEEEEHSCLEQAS
# protocolSummary: radiometric filter-binding kinase assay
# conditionNotes: compound 0.01 µM
readoutName: residual activity (%)

1. O=C(Nc1nc2cc(C(F)(F)F)cc(NC3CC3)n2n1)c1cccnc1 = 79
2. CNc1nc(-c2ccc3c(N)n[nH]c3c2)cc(N2C[C@@H](C(=O)NC3CCCCC3)CC[C@H]2C)n1 = 105
3. C/C(=C1/C(=O)Nc2ccc(NC(N)=O)cc21)c1ccc[nH]1 = 74
4. COc1ccc(N(C(=O)Nc2c(C)cccc2C)c2cc(Nc3ccc(N4CCN(C)CC4)cc3)ncn2)c(OC)c1 = 83
5. COc1cc(O)c2c(c1)[C@H]1OC1C[C@H](O)[C@H](O)C(=O)/C=C\C[C@H](C)OC2=O (stereo partly specified) = 103
6. CNC(=O)C1[C@H]2O[C@@](C)([C@@H]1N)n1c3ccccc3c3c4c(c5c6ccccc6n2c5c31)C(=O)NC4 (stereo partly specified) = 75

###

# tgt: MKNK1 (human)
# protocolSummary: radiometric filter-binding kinase assay
# conditionNotes: compound 0.1 µM
readoutName: residual activity (%)

1) CCc1cncnc1N1CCN(Cc2nc3cc(C(F)(F)F)ccc3[nH]2)CC1 = 101
2) CN1CCN(CCOc2cc(OC3CCOCC3)c3c(Nc4c(Cl)ccc5c4OCO5)ncnc3c2)CC1 = 107
3) COc1cc(O)c2c(c1)[C@H]1OC1C[C@H](O)[C@H](O)C(=O)/C=C\C[C@H](C)OC2=O (stereo not given in full) = 87
4) O=C(Nc1ccccc1-c1cn2c(CN3CCNCC3)csc2n1)c1cnc2ccccc2n1 = 92
5) Cc1ccc(-c2ccc3c(ccc4sc5c(c43)NC[C@@H](C)NC5=O)n2)cn1 = 105

###

# tgt: MAPK1 (human) (UniProt P28482)
# Sequence (P28482 whole entry, looked up): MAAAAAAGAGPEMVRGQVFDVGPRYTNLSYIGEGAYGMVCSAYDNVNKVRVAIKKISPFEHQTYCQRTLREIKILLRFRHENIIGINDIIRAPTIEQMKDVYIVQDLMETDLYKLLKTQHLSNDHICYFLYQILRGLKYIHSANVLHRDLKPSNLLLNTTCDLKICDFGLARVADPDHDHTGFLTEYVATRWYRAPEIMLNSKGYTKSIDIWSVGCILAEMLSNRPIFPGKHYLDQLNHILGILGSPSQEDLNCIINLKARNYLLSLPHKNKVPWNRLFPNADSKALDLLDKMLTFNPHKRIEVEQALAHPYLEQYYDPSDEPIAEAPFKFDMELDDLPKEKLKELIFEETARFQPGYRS
# protocolSummary: radiometric filter-binding kinase assay
# conditionNotes: compound 0.1 µM
readoutName: residual activity (%)

1. O=C(Nc1ccccc1-c1cn2c(CN3CCNCC3)csc2n1)c1cnc2ccccc2n1 = 93
2. NC(=O)Nc1ccc2c(c1)/C(=C/c1cc(-c3cccnc3)c[nH]1)C(=O)N2 = 81
3. Cn1c(=O)c2c(ncn2C)n(C)c1=O = 96
4. Cc1ccc(-c2ccc3c(ccc4sc5c(c43)NC[C@@H](C)NC5=O)n2)cn1 = 102
5. NC(=O)c1cc2c(-c3cccc(-c4ccccc4)c3)cnc(N)c2s1 = 81
6. CNc1nc(-c2ccc3c(N)n[nH]c3c2)cc(N2C[C@@H](C(=O)NC3CCCCC3)CC[C@H]2C)n1 = 111
7. c1ccc2c(-c3cnn4cc(-c5ccc(N6CCNCC6)cc5)cnc34)ccnc2c1 = 89
8. C/C(=C1/C(=O)Nc2ccc(NC(N)=O)cc21)c1ccc[nH]1 = 79
9. O=C(Nc1nc2cc(C(F)(F)F)cc(NC3CC3)n2n1)c1cccnc1 = 96
10. Cc1ccc(Sc2cnc(Nc3cccc(Br)n3)s2)cc1C(=O)N1CCN(C(=O)CN)CC1 = 99

###

# Tested on: SGK1 (human), O00141 [S422D]
# Sequence (O00141 whole entry S422D, looked up): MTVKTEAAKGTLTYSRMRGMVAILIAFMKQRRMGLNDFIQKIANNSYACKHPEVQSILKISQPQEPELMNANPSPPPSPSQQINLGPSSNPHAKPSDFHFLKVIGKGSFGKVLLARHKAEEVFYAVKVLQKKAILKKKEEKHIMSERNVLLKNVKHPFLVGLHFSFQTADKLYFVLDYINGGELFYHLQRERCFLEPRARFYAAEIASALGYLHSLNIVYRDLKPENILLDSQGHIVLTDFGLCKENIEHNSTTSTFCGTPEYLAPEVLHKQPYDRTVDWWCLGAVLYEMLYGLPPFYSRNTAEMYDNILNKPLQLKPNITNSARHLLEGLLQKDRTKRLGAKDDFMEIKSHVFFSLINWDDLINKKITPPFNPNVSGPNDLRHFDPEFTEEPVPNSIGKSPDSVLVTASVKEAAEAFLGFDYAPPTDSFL
# protocolSummary: radiometric filter-binding kinase assay
# conditionNotes: compound 10.0 µM
readoutName: residual activity (%)

Worked examples, 5 compounds total:
1) CC1=C(CO)C(=O)O[C@@H]([C@@H](C)[C@H]2CC[C@H]3[C@@H]4C[C@H]5O[C@]56[C@@H](O)C=CC(=O)[C@]6(C)C4CC[C@]23C)C1 (some centres not stated) = 103
2) O=C1NC(=S)N[C@@H]1Cc1c[nH]c2ccccc12 = 96
3) O=S(=O)(c1ccc(F)c2nonc12)N1CCN(c2ncc(C(F)(F)F)cc2Cl)CC1 = 70
4) O=C(NOCC(O)CO)c1ccc(F)c(F)c1Nc1ccc(I)cc1Cl (configuration not stated) = 111
5) C[C@H]1CCCC(=O)CCC/C=C/c2cc(O)cc(O)c2C(=O)O1 = 93

1: CCOC(=O)c1ccc(N2NC(=O)/C(=C/c3ccc([N+](=O)[O-])o3)C2=O)cc1
2: Cc1ccc(Sc2cnc(Nc3cccc(Br)n3)s2)cc1C(=O)N1CCN(C(=O)CN)CC1
QUERY: Determine, for 1 and 2 , which has the greater value of residual activity. When you have decided, please share the label of that item.
RESULT: 1
(1: 126%, 2: 41%)

###

# tgt: EPHB3 (human) (UniProt P54753)
# Sequence (P54753 whole entry, looked up): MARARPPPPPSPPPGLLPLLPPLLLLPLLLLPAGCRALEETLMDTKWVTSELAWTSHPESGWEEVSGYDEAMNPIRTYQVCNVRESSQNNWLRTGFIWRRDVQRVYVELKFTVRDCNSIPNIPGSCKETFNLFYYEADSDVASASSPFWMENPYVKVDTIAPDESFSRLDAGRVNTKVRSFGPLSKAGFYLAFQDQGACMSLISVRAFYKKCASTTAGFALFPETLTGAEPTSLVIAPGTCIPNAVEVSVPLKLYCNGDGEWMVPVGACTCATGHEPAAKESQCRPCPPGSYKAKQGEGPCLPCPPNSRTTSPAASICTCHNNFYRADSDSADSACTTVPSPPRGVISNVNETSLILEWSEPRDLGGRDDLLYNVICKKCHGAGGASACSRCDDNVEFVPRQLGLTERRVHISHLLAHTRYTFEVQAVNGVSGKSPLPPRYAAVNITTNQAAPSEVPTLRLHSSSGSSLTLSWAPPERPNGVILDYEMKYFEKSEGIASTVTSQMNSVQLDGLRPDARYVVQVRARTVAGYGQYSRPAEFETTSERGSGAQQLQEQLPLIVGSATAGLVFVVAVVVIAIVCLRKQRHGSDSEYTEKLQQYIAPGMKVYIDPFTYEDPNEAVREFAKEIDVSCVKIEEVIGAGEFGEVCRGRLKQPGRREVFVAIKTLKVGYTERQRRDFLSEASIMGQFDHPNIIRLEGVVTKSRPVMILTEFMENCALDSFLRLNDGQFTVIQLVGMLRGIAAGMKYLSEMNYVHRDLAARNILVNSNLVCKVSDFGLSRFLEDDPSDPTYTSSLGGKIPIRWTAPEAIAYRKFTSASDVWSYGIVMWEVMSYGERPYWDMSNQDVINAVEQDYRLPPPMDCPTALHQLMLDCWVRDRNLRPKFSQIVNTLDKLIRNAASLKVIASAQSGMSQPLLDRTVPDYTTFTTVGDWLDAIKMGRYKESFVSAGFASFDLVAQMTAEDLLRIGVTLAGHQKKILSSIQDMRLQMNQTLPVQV
# protocolSummary: radiometric filter-binding kinase assay
# conditionNotes: compound 10.0 µM
readoutName: residual activity (%)

1. NC1(c2ccc(-c3nc4ccn5c(=O)[nH]nc5c4cc3-c3ccccc3)cc2)CCC1 = 105
2. Oc1ccc(/C=C/c2cc(O)cc(O)c2)cc1 = 88
3. Cc1nc(-c2ccc(OCC(C)C)c(C#N)c2)sc1C(=O)O = 83
4. O=C(NOC[C@H](O)CO)c1ccc(F)c(F)c1Nc1ccc(I)cc1Cl = 113

A: Cc1cc(SCc2sc(-c3ccc(C(F)(F)F)cc3)nc2C)ccc1OCC(=O)O
B: Oc1ccc2ccccc2c1SSc1c(O)ccc2ccccc12
QUERY: Identify the entry with the larger residual activity. Options: A and B // return label of chosen record
RESULT: A

###

# tgt: MELK (human)
# protocolSummary: radiometric filter-binding kinase assay
# conditionNotes: compound 1.0 µM
readoutName: residual activity (%)

1. O=C(O)c1ccc(-c2c[nH]c3ncc(-c4ccccc4)cc23)cc1C1CCCC1 = 27

a: Cc1ccc(Sc2cnc(Nc3cccc(Br)n3)s2)cc1C(=O)N1CCN(C(=O)CN)CC1
b: O=C(NCCCNc1nc(Nc2cccc(CN3CCOCC3)c2)ncc1C1CC1)C1CCC1
QUERY: Would you let me know which has the greater residual activity value, a or b ? Refer to your chosen entry by its label in the reply.
RESULT: b
(b: 26%, a: 15%)
